- procedure.details: Particle size distribution (laser diffraction, volume based)
- Format: physicochemical
- test.context: Table 2-2 particle sizes
property.name: D90 (µm)
State just the number; it will be interpreted in µm.

Task: Which D90 reading was recorded for the compound NS(=O)(=O)Cc1noc2ccccc12 [Compound A, 1,2-BENZISOXAZOLE-3-METHANESULFONAMIDE] ?
Result: 5.16

* * *

- procedure.details: Particle size distribution (laser diffraction, volume based)
- Type: physicochemical
- test.context: Table 2-2 particle sizes
property.name: D10
Numeric answer plus unit only.

Task: For NS(=O)(=O)Cc1noc2ccccc12 [Compound A, 1,2-BENZISOXAZOLE-3-METHANESULFONAMIDE] , what is its reported D10?
Result: 0.73 µm

* * *

- procedure.details: Particle size distribution (laser diffraction, volume based)
- Format: physicochemical
- test.context: Table 2-2 particle sizes
property.name: D50 (µm)
Express it in µm; write the number only.

Task: Need D50 of NS(=O)(=O)Cc1noc2ccccc12 [Compound A, 1,2-BENZISOXAZOLE-3-METHANESULFONAMIDE] , thanks.
Result: 1.99
